- PROTOCOL: Cell Viability - Hek293 (AID 427);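 also: cells exposed to compound for 40 hours at 37 °C before reading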
- RECORDED CONDITIONS: qHTS
- Source text: NIH Chemical Genomics Center [NCGC] NIH Molecular Libraries Screening Centers Network [MLSCN] National Institutes of Environmental Health Sciences [NIEHS] National Toxicology Program [NTP] We have developed a 1536-well cell-based assay for quantitative high throughput screening (qHTS) against a number of cell lines to determine in vitro cytotoxicity of small molecules. […] 8. Detection; Luminescence; Viewlux plate reader […]
Results filed as inconclusive are left out. Calls of active or inactive are those of the source.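 The calls were made as follows: active = compounds whose dose-response curve shows a full or clear partial loss of cell viability, called from curve shape rather than a numeric limit; inconclusive = weak partial curves or an effect only at the top dose; inactive = no dose-dependent loss of viability.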
Bench note: report the call from active, inactive

Examples with answers:
{"COMPOUND": "COP(=S)(OC)Oc1ccc(SC)c(C)c1", "ANSWER LABEL": "inactive"}
{"COMPOUND": "COC(=O)C(c1ccccc1)C1CCCCN1 (stereo unspecified)", "ANSWER LABEL": "inactive"}
{"COMPOUND": "Nc1ccccc1C(=O)O", "ANSWER LABEL": "inactive"}
{"COMPOUND": "O=C(O)CCCc1ccc(N(CCCl)CCCl)cc1", "ANSWER LABEL": "active"}
{"COMPOUND": "CCOC(=O)CC(SP(=S)(OC)OC)C(=O)OCC (stereo unspecified)", "ANSWER LABEL": "inactive"}

Continue with the next compound.
Just curious, what result did C[C@]12CCC(=O)C=C1CC[C@@H]1[C@@H]2CC[C@]2(C)C(=O)CC[C@@H]12 get here?
active
